Target: recombinant PfA-M1 (Plasmodium falciparum, UniProt O96935)
Sequence (O96935 1-1085): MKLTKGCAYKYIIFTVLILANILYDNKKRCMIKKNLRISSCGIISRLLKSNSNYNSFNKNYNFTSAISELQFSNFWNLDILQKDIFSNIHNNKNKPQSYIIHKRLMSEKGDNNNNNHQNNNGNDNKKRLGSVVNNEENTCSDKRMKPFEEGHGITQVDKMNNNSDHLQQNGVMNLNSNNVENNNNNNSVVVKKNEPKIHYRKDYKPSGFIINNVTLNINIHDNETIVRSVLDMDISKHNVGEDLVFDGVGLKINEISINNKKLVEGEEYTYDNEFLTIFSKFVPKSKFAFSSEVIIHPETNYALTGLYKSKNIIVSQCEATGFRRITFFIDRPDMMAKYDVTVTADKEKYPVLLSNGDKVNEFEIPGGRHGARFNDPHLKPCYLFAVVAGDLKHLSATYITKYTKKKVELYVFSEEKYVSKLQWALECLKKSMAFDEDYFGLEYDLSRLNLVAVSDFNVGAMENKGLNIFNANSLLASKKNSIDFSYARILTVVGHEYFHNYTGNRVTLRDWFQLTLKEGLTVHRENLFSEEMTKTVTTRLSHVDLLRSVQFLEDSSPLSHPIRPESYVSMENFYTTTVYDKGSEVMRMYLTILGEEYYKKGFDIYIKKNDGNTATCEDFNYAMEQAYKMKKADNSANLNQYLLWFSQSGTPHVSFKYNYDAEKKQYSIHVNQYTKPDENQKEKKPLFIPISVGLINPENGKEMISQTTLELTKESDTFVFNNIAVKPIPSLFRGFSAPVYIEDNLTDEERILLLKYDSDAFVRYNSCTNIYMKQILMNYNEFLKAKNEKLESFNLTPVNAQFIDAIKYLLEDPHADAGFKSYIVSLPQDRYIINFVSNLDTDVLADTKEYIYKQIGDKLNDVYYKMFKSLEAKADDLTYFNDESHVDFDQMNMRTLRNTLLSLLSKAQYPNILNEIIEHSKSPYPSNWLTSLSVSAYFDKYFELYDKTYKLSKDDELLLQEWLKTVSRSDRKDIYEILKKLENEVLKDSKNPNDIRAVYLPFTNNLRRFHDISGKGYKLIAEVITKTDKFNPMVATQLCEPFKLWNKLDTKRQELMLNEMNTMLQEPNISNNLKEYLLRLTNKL
Format: biochemical
Settings: read-out: Ki (nM) PfA-M1; P1' derivatives; assays at 8 inhibitor concentrations spanning 0.3 30 μM
Documented Ki across a set of compounds

{"smiles data": "N[C@H](Cc1ccccc1)[C@H](O)C(=O)N[C@@H](Cc1ccc(-c2ccccc2)cc1)C(=O)O", "Ki": "> 30000 nM"}
{"smiles data": "N[C@H](Cc1ccccc1)[C@H](O)C(=O)N[C@@H](Cc1ccc2ccccc2c1)C(=O)O", "Ki": "> 30000 nM"}
